GI50 by entry:
System: MDA-MB-231
assayText: NCI tumour cell line growth inhibition, 48 h
Active and inactive are the calls of the source. No stated cut-off is given here; in the data, active = GI50 up to about 1.1 µM and inactive = higher.

Field: example entries. Status: answers known.
Cc1oc2c(c1C)S(=O)(=O)C(C#N)C(c1ccccc1)N2 (centres undefined) = > 100 µM (inactive)
N#C[BH2-][n+]1cn(C2CC(O)C(COP(=O)(O)OC3CC(n4ccc(N)nc4=O)OC3CO)O2)c2nc(N)[nH]c(=O)c21 (centres undefined) = > 100 µM (inactive)
N#C/C(C(=O)CCl)=C1\Nc2ccccc2O1 = 2.89 µM (inactive)

### Prompt # lookup: GI50 of `O=C(Cn1c2ccc(Br)cc2c2nc3ccccc3nc21)N/N=C/c1ccccc1`
### Response > 100 µM (inactive)

### Prompt Repeat for the following compound: `CN1c2ccccc2S(=O)(=O)n2c(COc3ccc(Cl)cc3)nnc21`
### Response 44.8 µM (inactive)

---

System: A498
assayText: NCI tumour cell line growth inhibition, 48 h
Active and inactive are the calls of the source. Cut-off read from the data, not from the text of the source: active = GI50 up to about 1.1 µM and inactive = higher.
measuredEndpoint: GI50

O=C(c1ccccn1)c1nnn2ccccc12 = > 100 µM (inactive)

### Prompt # lookup: GI50 of `C1=N\CCOCC/N=C/c2ccccc2OCc2cccc(n2)COc2ccccc2/1`
### Response > 25 µM (inactive)

### Prompt Repeat for the following compound: CC(C)(C)OC(=O)C1CCC/C1=N/Nc1ccc([N+](=O)[O-])cc1[N+](=O)[O-] (stereo unspecified)
### Response 13 µM (inactive)

### Prompt Repeat for the following compound: `CN(C)c1nc(NC23CC4CC(CC(C4)C2)C3)nc(N(C)C)n1`
### Response > 54 µM (inactive)

### Prompt Repeat for the following compound: Nc1nc2ncn(CC(O)COC(=O)c3ccccc3)c2c(=O)[nH]1 (stereo unspecified)
### Response > 100 µM (inactive)

### Prompt Repeat for the following compound: COc1ccccc1/C=C/C1=NN(c2cccc(S(=O)(=O)O)c2)C2(C1)SCC(=O)N2c1nc2ccccc2s1 (stereo unspecified)
### Response 83.4 µM (inactive)

### Prompt Repeat for the following compound: `Nc1ncc2c(n1)-c1ccccc1OC2`
### Response 51.2 µM (inactive)

### Prompt Repeat for the following compound: `Cc1ccc(NC(=O)CSc2nc(C)nc3c2sc(=S)n3-c2ccccc2)cc1`
### Response > 10 µM (inactive)

### Prompt Repeat for the following compound: `O=C1C=CC(=O)N1Nc1ccc([N+](=O)[O-])cc1[N+](=O)[O-]`
### Response 62.1 µM (inactive)

### Prompt Repeat for the following compound: COC(=O)CCC1CCc2c(OC)ccc(O)c2C1=O (stereo unspecified)
### Response > 100 µM (inactive)

### Prompt Repeat for the following compound: `CCOC(=O)c1cccn1S(=O)(=O)c1cc(Cl)ccc1NC(=O)CC`
### Response > 100 µM (inactive)

---

Tested on: NCI-H226
assayText: NCI tumour cell line growth inhibition, 48 h
Activity calls are given as the source filed them. Rule as the data show it: active = GI50 up to about 1.1 µM and inactive = higher.
Field 'call' accepts active, inactive

Record excerpt, results attached:
O=C(C[N+]1(c2ccccc2)CCOCC1)c1ccccc1 = inactive
Cc1ccc(S(=O)(=O)n2c3c(c4ccccc42)CCN2CCC(Br)C[C@@H]32)cc1 (stereo partly specified) = inactive
[O-][S+](Cc1cnc2ccccc2c1)c1nc2ccccc2nc1-c1cccs1 (stereo unspecified) = active
N#CC(C(=O)/C(=N/Nc1nc(S)nn1N)C(C#N)c1ccccc1)c1ccccc1 (stereo unspecified) = inactive
Cn1c2ccccc2c(=O)c2cccc(C(=O)NC(CCCNC(=N)N)C(=O)O)c21 (stereo unspecified) = inactive

# input for lookup
### Prompt I would be grateful if you could indicate the recorded call for O=C1CC(n2cccc2)c2cc(Br)sc21 (stereo unspecified) .
### Response inactive
